Tested on: Sclerotinia sclerotiorum
Assay: Fungistatic activity in Sclerotinia sclerotiorum assessed as inhibition of mycelial growth in contact phase measured at 20 degC after 5 days
Assay type: functional, organism-based
Settings: 120 h
pEC50: −log10 of the molar value.
measured quantity: pEC50

S=C=Nc1ccccc1 [PHENYLISOTHIOCYANATE]; 3.10
CCCCN=C=S [BUTYL ISOTHIOCYANATE]; 3.03
C=CCN=C=S [ALLYL ISOTHIOCYANATE]; 2.97
CN=C=S [METHYLISOTHIOCYANATE]; 3.77
S=C=NCCc1ccccc1 [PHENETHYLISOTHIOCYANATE]; 3.19
CCN=C=S [ETHYL ISOTHIOCYANATE]; 3.19
S=C=NCc1ccccc1 [BENZYL ISOTHIOCYANATE]; 3.17
